Target: EP4 (Homo sapiens (Human), UniProt P35408)
Sequence (P35408 whole entry): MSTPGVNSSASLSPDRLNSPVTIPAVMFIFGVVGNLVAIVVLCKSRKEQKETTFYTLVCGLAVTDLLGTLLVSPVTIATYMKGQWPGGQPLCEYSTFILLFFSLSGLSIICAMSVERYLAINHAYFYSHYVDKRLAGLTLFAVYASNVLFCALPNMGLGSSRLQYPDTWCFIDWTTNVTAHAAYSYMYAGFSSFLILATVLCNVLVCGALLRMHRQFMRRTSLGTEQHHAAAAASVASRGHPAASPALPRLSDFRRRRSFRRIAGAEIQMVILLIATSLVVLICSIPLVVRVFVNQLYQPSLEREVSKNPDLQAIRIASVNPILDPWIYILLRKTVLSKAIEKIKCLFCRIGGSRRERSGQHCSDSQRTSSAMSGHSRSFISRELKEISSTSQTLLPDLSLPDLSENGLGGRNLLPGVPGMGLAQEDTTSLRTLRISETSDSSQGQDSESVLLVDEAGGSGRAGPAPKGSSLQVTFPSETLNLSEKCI
Assay: hEP4 cAMP assay (BT549 breast cancer cells, HTRF cAMP)
Type: cell-based
Conditions: antagonistic activity, PGE2 6 nM
I'd be grateful if you could share measured IC50 for these entries.
Return type: number; implicit unit nM.

(Q) Report IC50, nothing else, for this compound: `CCOc1cc(-c2cc(NCCc3ccc4c(c3)OCO4)ncn2)sc1-c1noc(=O)[nH]1`
(A) 14

(Q) Please give measured IC50 of the following entry: `CCOc1cc(-c2cc(NCCc3ccc4cc[nH]c4c3)ncn2)ccc1C(=O)O`
(A) 394

(Q) Report IC50 for `CCOc1cc(-c2cc(NCCc3ccc4ncsc4c3)ncn2)sc1C(=O)O`
(A) 56

(Q) Recall and state the measured IC50 for `CCCc1cc(-c2cc(NCCc3ccc4ccccc4c3C)ncn2)cc(F)c1C(=O)O` .
(A) 40

(Q) Let me know recorded IC50 for `CCOc1cc(-c2cc(NCCc3cc4c(cc3C)OCCO4)ncn2)sc1-c1noc(=O)[nH]1` , thanks.
(A) 36

(Q) Report IC50 for `CCOc1cc2ccccc2cc1CCNc1cc(-c2ccc(OCC(=O)O)c(OCC)c2)ncn1`
(A) 158

(Q) Assign IC50 to the following record: `CCOc1cc(-c2cc(NCCc3cc4c(cc3C)OCCO4)ncn2)ccc1OCC(=O)O`
(A) 200

(Q) Give reported IC50 value for `CCOc1cc(-c2cc(NCCc3cc4c(cc3OC)OCO4)ncn2)ccc1CC(=O)O`
(A) 444

(Q) Kindly indicate its recorded IC50. Item: `CCOc1cc(-c2cc(NCCc3ccc4scnc4c3)ncn2)sc1C(=O)O`
(A) 53

Values were extracted from patent US11839613B2.
